Sourced from ChEMBL document CHEMBL1811790

Target: Nitric oxide synthase, inducible (Mus musculus, UniProt P29477)
Sequence (P29477 whole entry): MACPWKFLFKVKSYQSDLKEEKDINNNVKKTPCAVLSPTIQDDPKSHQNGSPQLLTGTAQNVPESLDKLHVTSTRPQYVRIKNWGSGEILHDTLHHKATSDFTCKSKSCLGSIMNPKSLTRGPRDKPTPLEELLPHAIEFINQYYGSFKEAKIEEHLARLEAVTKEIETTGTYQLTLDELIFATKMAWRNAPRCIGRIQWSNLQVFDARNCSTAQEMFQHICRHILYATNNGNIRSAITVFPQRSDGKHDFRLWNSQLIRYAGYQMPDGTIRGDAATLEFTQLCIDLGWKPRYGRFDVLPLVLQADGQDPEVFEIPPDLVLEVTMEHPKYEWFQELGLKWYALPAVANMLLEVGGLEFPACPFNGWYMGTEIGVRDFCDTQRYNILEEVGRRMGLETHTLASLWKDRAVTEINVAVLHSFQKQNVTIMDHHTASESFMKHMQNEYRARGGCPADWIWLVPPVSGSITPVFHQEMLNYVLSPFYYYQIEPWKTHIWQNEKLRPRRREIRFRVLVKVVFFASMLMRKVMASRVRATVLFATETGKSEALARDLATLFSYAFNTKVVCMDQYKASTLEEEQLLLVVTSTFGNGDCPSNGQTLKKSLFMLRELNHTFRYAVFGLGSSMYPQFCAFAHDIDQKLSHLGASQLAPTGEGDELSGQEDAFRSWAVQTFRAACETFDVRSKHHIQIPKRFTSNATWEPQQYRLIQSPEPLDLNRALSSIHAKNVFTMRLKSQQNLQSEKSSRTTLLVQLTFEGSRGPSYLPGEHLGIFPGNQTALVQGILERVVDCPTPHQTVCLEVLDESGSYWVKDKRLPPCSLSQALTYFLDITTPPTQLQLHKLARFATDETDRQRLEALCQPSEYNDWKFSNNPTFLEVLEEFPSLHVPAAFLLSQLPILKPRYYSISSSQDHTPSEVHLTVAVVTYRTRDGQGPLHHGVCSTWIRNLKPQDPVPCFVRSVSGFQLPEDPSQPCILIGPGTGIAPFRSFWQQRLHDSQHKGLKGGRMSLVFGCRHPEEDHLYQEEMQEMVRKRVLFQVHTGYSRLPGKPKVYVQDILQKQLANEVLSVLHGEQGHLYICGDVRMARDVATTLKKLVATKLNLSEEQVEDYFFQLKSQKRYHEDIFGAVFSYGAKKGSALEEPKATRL
Test: Inhibition of iNOS in mouse RAW264.7 cells assessed as conversion of L-citrulline to L-arginine incubated for 30 mins by scintillation counting
Conditions: in the assay text read “conversion of L-arginine to L-citrulline” for “conversion of L-citrulline to L-arginine”
pIC50: −log10 of the molar value.
Reported endpoint: pIC50

> print(dat)
                    structure.smiles.string                               target.desc  measured.value
1  C(=C\c1nnc(-c2ccc3c(c2)OCCO3)o1)/c1ccccc1  Nitric oxide synthase, inducible (Mus musculus, UniProt P29477)            7.05
2      Cc1ccccc1-c1nnc(-c2ccc3c(c2)OCCO3)o1  Nitric oxide synthase, inducible (Mus musculus, UniProt P29477)            7.00
3  Clc1ccc(OCc2nnc(-c3ccc4c(c3)OCCO4)o2)cc1  Nitric oxide synthase, inducible (Mus musculus, UniProt P29477)            5.67
4     c1cncc(-c2nnc(-c3ccc4c(c3)OCCO4)o2)c1  Nitric oxide synthase, inducible (Mus musculus, UniProt P29477)            7.30

a: c1ccc(-c2nnc(-c3ccc4c(c3)OCCO4)o2)cc1
b: COc1cc(-c2nnc(-c3ccc4c(c3)OCCO4)o2)cc(OC)c1OC
Exercise: compare a and b ; which one has the greater pIC50? Give the chosen item's label as your response.
b
(b: 6.92, a: 5.63)

* * *

Consider the following compounds and their measured deltaA readings.
Tested on: RAW264.7
Test: Acute toxicity in mouse RAW264.7 cells assessed as OD540 absorbance incubated for 24 hrs by MTT assay
Format: cell-based
Conditions: raw264.7, 24 h
Respond with the number and no other words.

These recorded examples may help you get a feel for the data.
> print(dat)
                    structure.smiles.string  measured.value
1     c1cncc(-c2nnc(-c3ccc4c(c3)OCCO4)o2)c1            1.31
2     c1ccc(-c2nnc(-c3ccc4c(c3)OCCO4)o2)cc1             1.5
3   Clc1ccc(Cc2nnc(-c3ccc4c(c3)OCCO4)o2)cc1            0.63
4     c1ccc(Cc2nnc(-c3ccc4c(c3)OCCO4)o2)cc1            0.45
5  COc1cc(-c2nnc(-c3ccc4c(c3)OCCO4)o2)cc(OC)c1OC            1.02

I am curious: what deltaA value has been reported for O=[N+]([O-])c1cccc(-c2nnc(-c3ccc4c(c3)OCCO4)o2)c1 ?
0.73

I am curious: what deltaA value has been reported for O=[N+]([O-])c1ccc(-c2nnc(-c3ccc4c(c3)OCCO4)o2)cc1 ?
0.57

I am curious: what deltaA value has been reported for Brc1cncc(-c2nnc(-c3ccc4c(c3)OCCO4)o2)c1 ?
1.22

I am curious: what deltaA value has been reported for Clc1ccccc1-c1nnc(-c2ccc3c(c2)OCCO3)o1 ?
1.45

I am curious: what deltaA value has been reported for c1ccc(CCc2nnc(-c3ccc4c(c3)OCCO4)o2)cc1 ?
0.1

I am curious: what deltaA value has been reported for O=[N+]([O-])c1ccccc1-c1nnc(-c2ccc3c(c2)OCCO3)o1 ?
0.3

* * *

Test system: RAW264.7
Assay: Inhibition of iNOS mRNA expression in mouse RAW264.7 cells by RT-PCR
Assay type: functional, cell-based
Activity calls are given as the source filed them. No cut-off for these calls is given here.
Choose the fitting class; nothing outside active, inactive is accepted.

Example results:
> print(dat)
                    structure.smiles.string  qualitative.label
1  COc1cc(-c2nnc(-c3ccc4c(c3)OCCO4)o2)cc(OC)c1OC           inactive
2      Cc1ccccc1-c1nnc(-c2ccc3c(c2)OCCO3)o1           inactive

Kindly provide the recorded test outcome for the following compound: C(=C\c1nnc(-c2ccc3c(c2)OCCO3)o1)/c1ccccc1
inactive

Kindly provide the recorded test outcome for the following compound: c1cncc(-c2nnc(-c3ccc4c(c3)OCCO4)o2)c1
active
